src = PubChem BioAssay AID1159580

For each record, write down the corresponding normalized growth.
# experiment_description: chemical genetic growth profiling, strain panel (AID 1159580);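 note: tested at 20 µM; growth read once vehicle control cultures reached saturation at 30 °C; 1 = growth at the plate median or of vehicle wells; lower values mean less growth of the strain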
# assay_setup: S. cerevisiae deletion strains, growth OD, locus YDL134C, strain PPH21, stronger effect = lower value
The whole screen tested about 5,500 compounds, of which about 2,000 (36%) were called active. Inconclusive results (about 18%) are left out. The list shows a part of the results.
Numbers only.

# count of solved cases: 10
Cn1c(=O)c2c(ncn2C)n(C)c1=O    0.992
CC(C)N1C(=O)c2ccccc2NS1(=O)=O    0.998
Cn1c(=O)c2c(ncn2CCO)n(C)c1=O    1
CNC(=O)N(C)c1nnc(C(C)(C)C)s1    1.01
COP(=O)(NC(C)=O)SC (centres undefined)    1.01
CCCc1ccc(/C(C)=N\O)cc1    0.965
Cn1c(=O)[nH]c2ncn(C)c2c1=O    1.02
CC(C)[C@@H]1CC[C@@H](C)C[C@H]1OC(=O)c1ccccc1    0.962
Cn1cnc2c1c(=O)[nH]c(=O)n2C    1.01
CC(C)c1cc2c(c(O)c1O)[C@@]1(C(=O)O)CCCC(C)(C)C1CC2 (some centres undefined)    0.993

Count: 3. Required value per item: normalized growth.
1. CC(=O)OCCCCN1C(=O)c2ccccc2C1=O
2. COC(=O)c1cc(OC)c(=O)c2c(OC)c(OC)ccc2c1
3. COc1cccc(C2SCc3cc(C)c(C)cc3CS2)c1O

// result
1
1.04
1.02
